- System: S. aureus RN4220
- PROCEDURE DETAILS: growth inhibition call (relative growth <= 0.2)
- MEASUREMENT CONTEXT: 50 µM
Out of some 39,000 compounds screened, about 500 (1.3%) were called active. Shown is part of a subset that was picked to be rich in actives.
Your reply should match one of these outcome classes. active, inactive

In: Given `COc1ccc(O)cc1` , state the outcome it received in this test.
Out: inactive

In: Another: `C[C@H]1CN([C@@H](C)CO)C(=O)Cc2cc(NS(=O)(=O)c3cn(C)cn3)ccc2O[C@H]1CN(C)S(=O)(=O)c1cn(C)cn1`
Out: inactive

In: Another: `Cc1ccc(S(=O)(=O)Nc2ccc3c(c2)C(=O)N([C@@H](C)CO)C[C@H](C)[C@@H](CN(C)Cc2ccc(C(F)(F)F)cc2)OCCCC[C@H](C)O3)cc1`
Out: inactive

In: Another: `Cl.N=C(NN=Cc1ccc(Cl)cc1)NN=Cc1ccc(Cl)cc1`
Out: inactive

In: Another: `COc1ccc(CNC(=O)C[C@H]2CC[C@@H]3[C@@H](COc4ccc(NC(=O)C(C)C)cc4C(=O)N3C)O2)cc1`
Out: inactive

In: Another: `COc1cc(C=Cc2ccc(O)cc2)cc(OC)c1`
Out: active

In: Another: `CC(C)NC(=N)NC(=N)Nc1ccc(Cl)cc1.Cl`
Out: inactive

In: Another: `CO[C@@H]1CN(C)C(=O)c2ccc(NC(=O)CN(C)C)cc2OC[C@@H](C)N(C(=O)C2CCOCC2)C[C@H]1C`
Out: inactive

In: Another: `Oc1ccc(C=Cc2cc(O)cc(O)c2)cc1`
Out: inactive

###

- System: S. aureus RN4220
- PROCEDURE DETAILS: growth inhibition call (relative growth <= 0.2)
- MEASUREMENT CONTEXT: 50 µM
Out of some 39,000 compounds screened, about 500 (1.3%) were called active. Shown is part of a subset that was picked to be rich in actives.
Your reply should match one of these outcome classes. True = active, False = inactive

For orientation, consider the following solved cases.
MOLECULE	CLASS NAME
CON=C(C(=O)N[C@@H]1C(=O)N2C(C(=O)OCOC(=O)C(C)(C)C)=C(C=Cc3scnc3C)CS[C@H]12)c1csc(N)n1	True
CON=C(C(=O)NC1C(=O)N2C(C(=O)OCOC(=O)C(C)(C)C)=C(C=Cc3scnc3C)CSC12)c1csc(N)n1 (stereo not drawn)	True
CCC=C(C(=O)NC1C(=O)N2C(C(=O)OCOC(=O)C(C)(C)C)=C(COC(N)=O)CSC12)c1csc(N)n1.Cl (stereo not drawn)	False
Cc1cc(CN)cc(C)c1NC(=O)c1ccc(-c2cc(Cl)ccc2Cl)o1	True
C[C@H]1CN([C@@H](C)CO)C(=O)c2cc(NC(=O)CCN3CCOCC3)ccc2O[C@H]1CN(C)CC1CCCCC1	False
C[C@H]1CN([C@@H](C)CO)C(=O)c2cc(NC(=O)CCCN(C)C)ccc2O[C@@H]1CN(C)C(=O)Nc1ccc(F)cc1	False
NC(CO)C(=O)O (stereo not drawn)	False

From here, focus on the item given below.
In: Given `C[C@H]1CCCCO[C@@H](CN(C)C(=O)Nc2ccc3c(c2)OCO3)[C@@H](C)CN([C@@H](C)CO)C(=O)c2cc(NS(=O)(=O)c3ccccc3)ccc2O1` , state the outcome it received in this test.
Out: False

###

- Test system: S. aureus RN4220
- PROCEDURE DETAILS: growth inhibition call (relative growth <= 0.2)
- MEASUREMENT CONTEXT: 50 µM
Screen size: about 39,000 compounds; about 500 (1.3%) were called active. The list comes from a sample in which actives are over-represented; it also holds close analogues and randomly drawn compounds.
Your reply should match one of these outcome classes. active, inactive

For orientation, consider the following solved cases.
COMPOUND	CLASS NAME
Cc1ccc(S(=O)(=O)N(C)C[C@@H]2Oc3ccc(NC(=O)NC(C)C)cc3CC(=O)N([C@H](C)CO)C[C@@H]2C)cc1	inactive
C[N+](C)(C)CCCCCCNC(=O)[C@@H]1C[C@@H]2C(=O)N[C@@H](CCCC[N+](C)(C)C)C(=O)N2[C@@H]1c1ccc(O)cc1	active
CC(=O)OC1CC(OC(C)=O)C2(C)C(CC(OC(C)=O)C3(C)C4=CC(=O)OC(c5ccoc5)C4(C)CCC32)C1(C)C (stereo not drawn)	inactive

In: Given CNC1CCC(c2ccc(Cl)c(Cl)c2)c2ccccc21.Cl (stereo not drawn) , state the outcome it received in this test.
Out: active

In: Another: `CN[C@H]1CC[C@@H](c2ccc(Cl)c(Cl)c2)c2ccccc21`
Out: inactive

In: Another: `C[C@H](CO)N1C[C@H](C)[C@H](CN(C)C(=O)CCC(F)(F)F)OCCCC[C@H](C)Oc2ccc(NC(=O)C3CCCCC3)cc2C1=O`
Out: inactive

In: Another: `Cc1noc(C)c1NC(=O)Nc1ccc2c(c1)C(=O)N([C@H](C)CO)C[C@@H](C)[C@@H](CN(C)C(=O)C1CCCCC1)OCCCC[C@@H](C)O2`
Out: inactive

In: Another: `COc1ccc(NC(=O)N(C)C[C@@H]2Oc3ccc(NC(=O)CCN4CCOCC4)cc3C(=O)N([C@H](C)CO)C[C@H]2C)cc1`
Out: inactive

###

- System: S. aureus RN4220
- PROCEDURE DETAILS: growth inhibition call (relative growth <= 0.2)
- MEASUREMENT CONTEXT: 50 µM
The campaign covered roughly 39,000 compounds. About 500 (1.3%) were called active. This is one part of a sample in which actives are shown more often than they occur.
Your reply should match one of these outcome classes. active, inactive

For orientation, consider the following solved cases.
1) CC(C)C[C@@H]1NC(=O)[C@@H](C(C)C)NC(=O)[C@@H]2CCCN2C(=O)[C@@H](CC(=O)O)NC(=O)[C@@H](Cc2c[nH]c3ccccc23)NC1=O inactive
2) O=C1O[C@H](c2ccccc2)[C@H](c2ccccc2)N2[C@H]1[C@@H](C(=O)N1CCN(c3ncccn3)CC1)[C@]1(C(=O)Nc3ccc(C#CC4=CCCCC4)cc31)[C@H]2c1ccc(O)cc1 inactive
3) CCN(CC)C(=O)c1cccnc1 inactive
4) C[C@@H]1CN([C@H](C)CO)C(=O)Cc2cc(NC(=O)CCN3CCOCC3)ccc2O[C@@H]1CN(C)C(=O)Nc1ccc2c(c1)OCO2 inactive
5) COc1nc(N)nc2c1ncn2[C@@H]1O[C@H](CO)[C@@H](O)[C@@H]1O inactive
6) O=C(Cn1ccc([N+](=O)[O-])n1)N1CCOCC1 inactive
7) N=C(N)NCCC[C@@H](NC(=O)CC1(CC(=O)N2CCN([C@H]3c4ccccc4NC(=O)c4ccccc43)CC2)CCCC1)C(=O)NCCn1c(=O)n(-c2ccccc2)n(-c2ccccc2)c1=O active
8) CNc1ncnc2c1ncn2[C@@H]1O[C@H](CO)[C@@H](O)[C@H]1O inactive

In: Given `Cn1cnc(S(=O)(=O)N2C[C@H](O)COC[C@@H]3O[C@@H](CC(=O)NC4CCCC4)CC[C@H]32)c1` , state the outcome it received in this test.
Out: inactive

In: Another: `CC(C)C[C@H]1NC(=O)[C@@H](CCCN)NC(=O)[C@H](C(C)C)NC(=O)[C@H]2CCCN2C(=O)[C@@H](Cc2ccccc2)NC(=O)[C@@H](CC(C)C)NC(=O)[C@@H](CCCN)NC(=O)[C@H](C(C)C)NC(=O)[C@H]2CCCN2C(=O)[C@@H](Cc2ccccc2)NC1=O`
Out: inactive

In: Another: `C[C@@H]1CN([C@@H](C)CO)C(=O)c2cc(C#Cc3ccccc3F)cnc2O[C@H]1CN(C)S(=O)(=O)c1ccccc1F`
Out: inactive

In: Another: `C[C@@H]1CN([C@H](C)CO)C(=O)Cc2cc(NC(=O)Nc3ccc4c(c3)OCO4)ccc2O[C@H]1CN(C)S(C)(=O)=O`
Out: inactive

In: Another: `COc1ccc(S(=O)(=O)N(C)C[C@@H]2OCc3cnnn3CCCC(=O)N([C@@H](C)CO)C[C@H]2C)cc1`
Out: inactive

In: Another: `O=C(N/N=C/c1ccc(CO)o1)c1ccccn1`
Out: inactive

In: Another: `NC(=O)N1C(=O)[C@H]2[C@H](C1=O)[C@H]1C=C(CCCO)[C@@H]2[C@H](c2ccc(CN3CCCC3)cc2)N1Cc1sc2ccccc2c1Cl`
Out: inactive

In: Another: `COc1ccc(C[C@@H](N)C(=O)N[C@@H]2[C@@H](O)[C@@H](n3cnc4c(N(C)C)ncnc43)O[C@@H]2CO)cc1`
Out: active

###

- System: S. aureus RN4220
- PROCEDURE DETAILS: growth inhibition call (relative growth <= 0.2)
- MEASUREMENT CONTEXT: 50 µM
Out of some 39,000 compounds screened, about 500 (1.3%) were called active. Only a selection was taken, and actives are over-represented in it overall.
Your reply should match one of these outcome classes. YES = active, NO = inactive

1) C[C@H](CO)N1C[C@H](C)[C@@H](CN(C)C(=O)Cc2ccncc2)Oc2ncc(C#Cc3ccccc3F)cc2C1=O NO

In: Given `C[C@@H]1CCCCO[C@@H](CN(C)C(=O)NC2CCCCC2)[C@H](C)CN([C@H](C)CO)C(=O)c2cc(NS(=O)(=O)c3cccs3)ccc2O1` , state the outcome it received in this test.
Out: NO

In: Another: `COc1ncc(-c2ccc3c(Nc4cc(Oc5cc(F)cc(F)c5)cc(C(=O)O)c4)c(S(=O)(=O)NC4CC4)cnc3c2)c(OC)n1`
Out: YES

In: Another: `C[C@@H]1CN([C@H](C)CO)C(=O)c2cccc(NC(=O)Nc3cccc4ccccc34)c2O[C@@H]1CN(C)C(=O)Nc1ccc2c(c1)OCO2`
Out: NO
